The measurements presented in this section are drawn from ChEMBL document CHEMBL1909046.

- Test target: Melanocortin receptor 5 (Homo sapiens); note: in other assays of this panel Not Active means under 50% inhibition at 10 µM
- Sequence (P33032 whole entry): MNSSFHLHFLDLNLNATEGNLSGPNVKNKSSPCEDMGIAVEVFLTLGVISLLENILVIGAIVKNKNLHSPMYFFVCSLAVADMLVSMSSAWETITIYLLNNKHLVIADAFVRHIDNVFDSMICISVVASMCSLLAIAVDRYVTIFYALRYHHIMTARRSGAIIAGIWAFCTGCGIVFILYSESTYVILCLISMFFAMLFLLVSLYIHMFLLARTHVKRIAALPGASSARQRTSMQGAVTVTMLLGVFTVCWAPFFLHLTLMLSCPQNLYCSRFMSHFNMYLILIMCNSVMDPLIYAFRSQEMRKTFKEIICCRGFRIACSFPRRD
- Type: cell membranes, HEK293, Membrane
- Study conditions: hek293; read-out: IC50

- Chain sequence: "CISPLATIN"
  Unit of measurement: "µM"
  IC50: 6.43

###

- Test target: Aldo-keto reductase family 1 member B1 (Rattus norvegicus, UniProt P07943); note: in other assays of this panel Not Active means under 50% inhibition at 10 µM;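 note: inhibition of aldose reductase enzyme activity, measured with DL-glyceraldehyde as the substrate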
- Format: tissue-based, Lens of camera-type eye
Where a SMILES comes first, the peptide text is derived from it. Bridges are numbered along the chain shown (N, C = ends). [ ]: non-standard residue; d: D form. The star is where a group is joined. Ileψ(thiazoline)Cys = CC[C@H](C)[C@H](N)C1=N[C@H](C(=O)*)CS1; dOrn = NCCC[C@@H](N)C(=O)O

- Compound: "c1ccc2c(c1)cc1ccc3cccc4ccc2c1c34"
  IC50: "Not Active"
- Compound: "CC[C@H](C)[C@H](N)C1=N[C@H](C(=O)N[C@@H](CC(C)C)C(=O)N[C@H](CCC(=O)O)C(=O)N[C@H](C(=O)N[C@H]2CCCCNC(=O)[C@H](CC(N)=O)NC(=O)[C@@H](CC(=O)O)NC(=O)[C@H](Cc3cnc[nH]3)NC(=O)[C@@H](Cc3ccccc3)NC(=O)[C@H]([C@@H](C)CC)NC(=O)[C@@H](CCCN)NC2=O)[C@@H](C)CC)CS1 [BACITRACIN] ({Ileψ(thiazoline)Cys}-L[dE]IK[dOrn]I[dF]H[dD]N; lactam 4-C)"
  IC50: "Not Active"
- Compound: "NCC(=O)O"
  IC50: "Not Active"

###

- Assay protocol: DRUGMATRIX: GABAA, Chloride Channel, TBOB radioligand binding (ligand: [3H] TBOB)
- Type: cell membranes, Rattus norvegicus, Wistar, Cerebral cortex, Membrane
- Study conditions: Not Active = under 50% inhibition at 10 µM; read-out: IC50
pIC50: −log10 of the molar value.
pIC50 by entry:
Measured metric: pIC50

- Record smiles: "C=C(C)[C@@H]1[C@H]2OC(=O)[C@@H]1[C@]1(O)C[C@H]3O[C@]34C(=O)O[C@H]2[C@]14C"
  Measured metric: "pIC50"
  Value observed: 6.43
- Record smiles: "CC(=O)[C@H]1CC[C@H]2[C@@H]3CCC4=CC(=O)CC[C@]4(C)[C@H]3CC[C@]12C"
  Measured metric: "pIC50"
  Value observed: 4.60

###

- Assay protocol: DRUGMATRIX: Phosphodiesterase PDE3 enzyme inhibition (substrate: [3H]cAMP + cAMP)
- Assay type: tissue-based, Homo sapiens
- Study conditions: platelet; Not Active = under 50% inhibition at 10 µM

- Molecule: "CC(=O)[C@H]1CC[C@H]2[C@@H]3CCC4=CC(=O)CC[C@]4(C)[C@H]3CC[C@]12C"
  Ki: "Not Active"
- Molecule: "CC[N+](CC)(CC)CCOc1cccc(OCC[N+](CC)(CC)CC)c1OCC[N+](CC)(CC)CC.[I-].[I-].[I-] [GALLAMINE TRIETHIODIDE]"
  Ki: "Not Active"
- Molecule: "C=C1[C@@H]2CCC3[C@@](CC[C@@H]4[C@H](C(=O)O)C[C@@H](O[C@@H]5O[C@H](CO)[C@@H](OS(=O)(=O)[O-])[C@H](OS(=O)(=O)[O-])[C@H]5OC(=O)CC(C)C)C[C@@]34C)(C2)[C@@H]1O.[K+].[K+] (stereo partly drawn) [ATRACTYLOSIDE]"
  Ki: "Not Active"

###

- Assay protocol: DRUGMATRIX: Phosphodiesterase PDE3 enzyme inhibition (substrate: [3H]cAMP + cAMP)
- Format: tissue-based, Homo sapiens
- Study conditions: platelet; Not Active = under 50% inhibition at 10 µM
Where a SMILES comes first, the peptide text is derived from it. Bridges are numbered along the chain shown (N, C = ends). [ ]: non-standard residue; d: D form. The star is where a group is joined. Ileψ(thiazoline)Cys = CC[C@H](C)[C@H](N)C1=N[C@H](C(=O)*)CS1; dOrn = NCCC[C@@H](N)C(=O)O

- Molecule: "COS(C)(=O)=O"
  Ki: "Not Active"
- Molecule: "CC[C@H](C)[C@H](N)C1=N[C@H](C(=O)N[C@@H](CC(C)C)C(=O)N[C@H](CCC(=O)O)C(=O)N[C@H](C(=O)N[C@H]2CCCCNC(=O)[C@H](CC(N)=O)NC(=O)[C@@H](CC(=O)O)NC(=O)[C@H](Cc3cnc[nH]3)NC(=O)[C@@H](Cc3ccccc3)NC(=O)[C@H]([C@@H](C)CC)NC(=O)[C@@H](CCCN)NC2=O)[C@@H](C)CC)CS1 [BACITRACIN] ({Ileψ(thiazoline)Cys}-L[dE]IK[dOrn]I[dF]H[dD]N; lactam 4-C)"
  Ki: "Not Active"
- Molecule: "COC(=O)[C@H](c1ccccc1Cl)N1CCc2sccc2C1"
  Ki: "Not Active"

###

- Test target: 5-hydroxytryptamine receptor 2B (Homo sapiens); note: in other assays of this panel Not Active means under 50% inhibition at 10 µM
- Sequence (P41595 whole entry): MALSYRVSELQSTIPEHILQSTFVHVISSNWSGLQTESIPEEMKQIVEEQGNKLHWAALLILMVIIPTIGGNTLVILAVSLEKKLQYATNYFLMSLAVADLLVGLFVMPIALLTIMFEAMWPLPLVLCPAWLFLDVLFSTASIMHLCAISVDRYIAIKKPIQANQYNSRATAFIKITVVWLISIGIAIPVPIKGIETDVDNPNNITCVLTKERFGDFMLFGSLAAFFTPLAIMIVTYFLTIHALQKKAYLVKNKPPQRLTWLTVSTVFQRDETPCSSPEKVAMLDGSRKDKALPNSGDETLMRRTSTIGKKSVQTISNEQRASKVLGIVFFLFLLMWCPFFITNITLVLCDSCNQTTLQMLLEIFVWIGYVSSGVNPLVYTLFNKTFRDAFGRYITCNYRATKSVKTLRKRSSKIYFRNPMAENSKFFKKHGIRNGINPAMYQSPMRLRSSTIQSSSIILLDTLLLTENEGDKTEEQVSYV
- Assay type: cell membranes, CHO-K1, Membrane
- Study conditions: read-out: Ki
Criterion: Ki strictly less than 1000 nM. Met: t. Not met: f.

- Compound: "Clc1ccc(C(c2ccccc2Cl)C(Cl)Cl)cc1 (stereo not given) [MITOTANE]"
  Assigned class: "f"
- Compound: "CN(C)CCCN1c2ccccc2CCc2ccc(Cl)cc21 [CLOMIPRAMINE]"
  Assigned class: "t"
- Compound: "Cc1ccccc1N1CCN(CCc2nnc3n2CCCC3)CC1 [DAPIPRAZOLE]"
  Assigned class: "t"
- Compound: "CC1=C(/C=C/C(C)=C/C=C/C(C)=C\\C(=O)O)C(C)(C)CCC1 [ISOTRETINOIN]"
  Assigned class: "t"
- Compound: "CN(C)CCCC1(c2ccc(F)cc2)OCc2cc(C#N)ccc21 (stereo not given) [CITALOPRAM]"
  Assigned class: "f"

###

- Assay protocol: DRUGMATRIX: Calcium Channel Type L, Phenylalkylamine radioligand binding (ligand: [3H] (-)-Desmethoxyverapamil (D-888))
- Type: cell membranes, Rattus norvegicus, Wistar, Brain, Membrane
- Study conditions: Not Active = under 50% inhibition at 10 µM; read-out: Ki
Ki by entry:
Measured metric: Ki (nM)

- Molecule: "COc1ccc([C@@H]2Sc3ccccc3N(CCN(C)C)C(=O)[C@@H]2OC(C)=O)cc1 [DILTIAZEM]"
  Value observed: 612
- Molecule: "Fc1ccc([C@@H]2CCNC[C@H]2COc2ccc3c(c2)OCO3)cc1 [PAROXETINE]"
  Value observed: 726
- Molecule: "CN(C)CCCC1(c2ccc(F)cc2)OCc2cc(C#N)ccc21 (stereo not given) [CITALOPRAM]"
  Value observed: 996
- Molecule: "CNCCC=C1c2ccccc2CCc2ccccc21 [NORTRIPTYLINE]"
  Value observed: 1840
- Molecule: "COC(=O)C1=C(C)NC(C)=C(C(=O)OC)C1c1ccccc1[N+](=O)[O-] [NIFEDIPINE]"
  Value observed: 853

###

- Assay protocol: DRUGMATRIX: GABAA, Muscimol, Central radioligand binding (ligand: [3H] Muscimol)
- Assay type: cell membranes, Rattus norvegicus, Wistar, Brain, Membrane
- Study conditions: Not Active = under 50% inhibition at 10 µM

- Compound: "C=C(C)[C@@H]1[C@H]2OC(=O)[C@@H]1[C@]1(O)C[C@H]3O[C@]34C(=O)O[C@H]2[C@]14C [PICROTOXININ]"
  IC50: "Not Active"
- Compound: "NNC(=O)c1ccncc1 [ISONIAZID]"
  IC50: "Not Active"
- Compound: "C=C1[C@@H]2CCC3[C@@](CC[C@@H]4[C@H](C(=O)O)C[C@@H](O[C@@H]5O[C@H](CO)[C@@H](OS(=O)(=O)[O-])[C@H](OS(=O)(=O)[O-])[C@H]5OC(=O)CC(C)C)C[C@@]34C)(C2)[C@@H]1O.[K+].[K+] (stereo partly drawn) [ATRACTYLOSIDE]"
  IC50: "Not Active"

###

- Test target: Cytochrome P450 3A4 (Homo sapiens, UniProt P08684); note: in other assays of this panel Not Active means under 50% inhibition at 10 µM
- Sequence (P08684 whole entry): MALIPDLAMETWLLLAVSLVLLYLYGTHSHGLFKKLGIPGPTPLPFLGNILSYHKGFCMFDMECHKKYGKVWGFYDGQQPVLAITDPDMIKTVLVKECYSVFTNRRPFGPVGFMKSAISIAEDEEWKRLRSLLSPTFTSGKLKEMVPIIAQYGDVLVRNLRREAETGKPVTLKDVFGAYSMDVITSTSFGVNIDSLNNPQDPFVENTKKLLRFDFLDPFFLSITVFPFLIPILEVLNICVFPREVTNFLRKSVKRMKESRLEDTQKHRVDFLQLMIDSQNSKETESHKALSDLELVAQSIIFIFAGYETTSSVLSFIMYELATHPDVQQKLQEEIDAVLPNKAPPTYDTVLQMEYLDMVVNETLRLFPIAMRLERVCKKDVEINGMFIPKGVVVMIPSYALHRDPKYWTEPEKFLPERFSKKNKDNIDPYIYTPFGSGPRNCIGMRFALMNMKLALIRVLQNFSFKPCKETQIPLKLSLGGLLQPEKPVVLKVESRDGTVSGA
- Study conditions: bti-tn-5b1-4

- Compound: "CNC(=O)Oc1ccc2c(c1)[C@]1(C)CCN(C)[C@@H]1N2C [PHYSOSTIGMINE]"
  IC50: "Not Active"
- Compound: "CC(C)(S)[C@@H](N)C(=O)O [PENICILLAMINE]"
  IC50: "Not Active"
- Compound: "Nc1nc(=O)[nH]cc1F [FLUCYTOSINE]"
  IC50: "Not Active"
- Compound: "COc1ccc2c(c1)c(CC(=O)OCC(=O)O)c(C)n2C(=O)c1ccc(Cl)cc1 [ACEMETACIN]"
  IC50: "Not Active"
- Compound: "C=C1CC[C@H](O)C/C1=C/C=C1\\CCC[C@]2(C)[C@@H]([C@H](C)/C=C/[C@H](C)C(C)C)CC[C@@H]12 [ERGOCALCIFEROL]"
  IC50: "Not Active"
